The measured values listed here are drawn from ChEMBL document CHEMBL4033777.

Experiment: Tmax in plasma of NIH-III mouse xenografted with human HCT116 cells at 2.20 mmol/kg, iv administered as single dose by HPLC analysis
Type: ADME, organism-based
Conditions: 2.2 mmol/kg
Tmax for assorted compounds

Noted for O=C(Cn1ccnc1[N+](=O)[O-])NCCO : its Tmax reads 5 min

Noted for O=[N+]([O-])c1nccn1CS(=O)(=O)NCCOP(=O)(O)O : its Tmax reads 10 min

Noted for O=[N+]([O-])c1cncn1CS(=O)(=O)NCCOP(=O)(O)O : its Tmax reads 10 min

Next item in the queue.
Noted for O=[N+]([O-])c1nccn1CCS(=O)(=O)NCCOP(=O)(O)O : its Tmax reads 10 min

* * *

Ratio for assorted compounds
System: HCT-116
Assay: Hypoxia radiosensitization activity in human HCT116 cells assessed as survival ratio by measuring ratio of cell survival with 15 Gy radiation in absence to presence of compound at anoxic IC50 preincubated for 1 hr followed by 15 Gy irradiation measured after 10 days by methylene blue staining-based cell counting method
Type: functional
Lab note: write the figure by itself, no unit.

// solved cases for Ratio follow
Noted for Cc1ncc([N+](=O)[O-])n1CCS(=O)(=O)NCCN1CCOCC1 : its Ratio reads 2.71

Noted for O=[N+]([O-])c1nccn1CS(=O)(=O)NCCN1CCOCC1 : its Ratio reads 10.5

Noted for Cc1ncc([N+](=O)[O-])n1CCS(=O)(=O)N1CCC(N(C)C)CC1 : its Ratio reads 12

Continuing:
Noted for O=C(O)CCNS(=O)(=O)Cn1ccnc1[N+](=O)[O-] : its Ratio reads 2

Noted for COCCNS(=O)(=O)CCn1cnc([N+](=O)[O-])c1 : its Ratio reads 9

Noted for Cc1ncc([N+](=O)[O-])n1CCS(=O)(=O)NCCO : its Ratio reads 3.4

* * *

Test system: Plasma
Assay: Cmax in plasma of NIH-III mouse xenografted with human HCT116 cells at 2.20 mmol/kg, iv administered as single dose by HPLC analysis
Format: ADME, organism-based
Set-up: dose 2.2 mmol/kg, route intravenous
Conditions: in vivo
measurement_type: Cmax
Number first, unit second.

// solved cases for Cmax follow
Noted for O=C(Cn1ccnc1[N+](=O)[O-])NCCO : its Cmax reads 3640 µM

Noted for O=[N+]([O-])c1cncn1CS(=O)(=O)NCCOP(=O)(O)O : its Cmax reads 1100 µM

Noted for O=[N+]([O-])c1nccn1CCS(=O)(=O)NCCOP(=O)(O)O : its Cmax reads 1140 µM

Next item in the queue.
Noted for O=[N+]([O-])c1nccn1CS(=O)(=O)NCCOP(=O)(O)O : its Cmax reads 900 µM

* * *

Experiment: Cmax in tumor of NIH-III mouse xenografted with human HCT116 cells at 1.12 mmol/kg, iv administered as single dose by HPLC analysis
Type: ADME, organism-based, Neoplasm
Parameters: dose 1.12 mmol/kg, route intravenous
Settings: in vivo
measurement_type: Cmax (µM)
Reply numerically in µM, unit not repeated.

Noted for O=[N+]([O-])c1nccn1CCS(=O)(=O)NCCN1CCOCC1 : its Cmax reads 410

* * *

Test system: Mus musculus
Test: Drug level in NIH-III mouse assessed as maximum achievable dose at 10 ml/kg, iv
Type: ADME
Conditions: in vivo
Drug uptake for assorted compounds
Reply numerically in mmol/kg, unit not repeated.

// solved cases for Drug uptake follow
Per the reported Mus musculus data, O=[N+]([O-])c1nccn1CS(=O)(=O)NCCO has Drug uptake of 0.6

Per the reported Mus musculus data, O=[N+]([O-])c1nccn1CCS(=O)(=O)NCCN1CCOCC1 has Drug uptake of 1.12

Per the reported Mus musculus data, O=[N+]([O-])c1nccn1CS(=O)(=O)NCCOP(=O)(O)O has Drug uptake of 2.2

Per the reported Mus musculus data, O=[N+]([O-])c1nccn1CCS(=O)(=O)NCCOP(=O)(O)O has Drug uptake of 2.2

Per the reported Mus musculus data, O=[N+]([O-])c1cncn1CCS(=O)(=O)NCCOP(=O)(O)O has Drug uptake of 2.2

Continuing:
Per the reported Mus musculus data, O=[N+]([O-])c1cncn1CS(=O)(=O)NCCOP(=O)(O)O has Drug uptake of 2.2

Per the reported Mus musculus data, O=C(Cn1ccnc1[N+](=O)[O-])NCCO [ETANIDAZOLE] has Drug uptake of 2.2

* * *

Assay: Toxicity in NIH-III mouse at 10 ml/kg, iv
Settings: in vivo
measurement_type: MTD (µmol/kg)
Reply numerically in µmol/kg, unit not repeated.

Noted for O=[N+]([O-])c1cncn1CCN1CCOCC1 [NIMORAZOLE] : its MTD reads 1240

* * *

Test: Tmax in plasma of NIH-III mouse xenografted with human HCT116 cells at 1.12 mmol/kg, iv administered as single dose by HPLC analysis
Format: ADME, organism-based
measurement_type: Tmax (min)
Reply numerically in min, unit not repeated.

Noted for O=[N+]([O-])c1nccn1CCS(=O)(=O)NCCN1CCOCC1 : its Tmax reads 5

* * *

Tested on: HCT-116
Test: Hypoxic cytotoxicity ratio of IC50 for human HCT116 cells under oxic condition to IC50 for human HCT116 cells under anoxic condition
measurement_type: Ratio IC50
Lab note: write the figure by itself, no unit.

// solved cases for Ratio IC50 follow
Noted for O=[N+]([O-])c1cn(CS(=O)(=O)NCCN2CCOCC2)cn1 : its Ratio IC50 reads 1.3

Noted for O=[N+]([O-])c1nccn1CS(=O)(=O)NCCN1CCOCC1 : its Ratio IC50 reads 50

Continuing:
Noted for Cc1ncc([N+](=O)[O-])n1CCS(=O)(=O)NCCCN(C)C : its Ratio IC50 reads 3

Noted for Cc1ncc([N+](=O)[O-])n1CCS(=O)(=O)N1CCN(C)CC1 : its Ratio IC50 reads 0.6

Noted for O=[N+]([O-])c1nccn1CCS(=O)(=O)NCCN1CCOCC1 : its Ratio IC50 reads 10

* * *

Tested on: Plasma
Assay: Cmax in plasma of NIH-III mouse xenografted with human HCT116 cells at 0.60 mmol/kg, iv administered as single dose by HPLC analysis
Type: ADME, organism-based
Parameters: dose 0.6 mmol/kg, route intravenous
Details: in vivo
measurement_type: Cmax (µM)
Reply numerically in µM, unit not repeated.

Noted for O=[N+]([O-])c1nccn1CS(=O)(=O)NCCO : its Cmax reads 570

* * *

Assay: Solubility of the compound in alphaMEM containing 5% FCS and 1% DMSO by HPLC analysis
Format: physicochemical
measurement_type: solubility

Noted for Cc1ncc([N+](=O)[O-])n1CCS(=O)(=O)NCCO : its solubility reads > 49.3 mM

Noted for O=C(O)CNS(=O)(=O)Cn1ccnc1[N+](=O)[O-] : its solubility reads 59.3 mM

Noted for Cc1ncc([N+](=O)[O-])n1CCS(=O)(=O)NCCCN(C)C : its solubility reads > 53.8 mM

Next item in the queue.
Noted for Cc1ncc([N+](=O)[O-])n1CCS(=O)(=O)NCCCN1CCOCC1 : its solubility reads > 55.2 mM

* * *

Tested on: HCT-116
Experiment: Hypoxia radiosensitization activity in human HCT116 cells assessed as survival ratio by measuring ratio of cell survival with 15 Gy radiation in absence to presence of compound at anoxic IC50 preincubated for 1 hr followed by 15 Gy irradiation measured after 10 days by methylene blue staining-based cell counting method
Type: functional
Rule: Ratio below 10 gives 1 (yes). Equal to or above 10 gives 0 (no).

In: Here's an entry: O=[N+]([O-])c1cncn1CCS(=O)(=O)NCCO . Is its Ratio below 10?
Out: 0 (no)

* * *

Tested on: HCT-116
Assay: Hypoxic cytotoxicity ratio of IC50 for human HCT116 cells under oxic condition to IC50 for human HCT116 cells under anoxic condition
Ratio IC50 for assorted molecules
Lab note: write the figure by itself, no unit.

// solved cases for Ratio IC50 follow
Per the reported HCT-116 data, COCCNS(=O)(=O)CCn1cncc1[N+](=O)[O-] has Ratio IC50 of 2.5

Per the reported HCT-116 data, Cc1ncc([N+](=O)[O-])n1CCS(=O)(=O)NCCN1CCOCC1 has Ratio IC50 of 1.4

Per the reported HCT-116 data, COCCCNS(=O)(=O)CCn1c([N+](=O)[O-])cnc1C has Ratio IC50 of 1.2

Continuing:
Per the reported HCT-116 data, CCN(CC)CCNS(=O)(=O)CCn1c([N+](=O)[O-])cnc1C has Ratio IC50 of 2

* * *

Test system: HCT-116
Experiment: Hypoxia radiosensitization activity in human HCT116 cells assessed as survival ratio by measuring ratio of cell survival with 15 Gy radiation in absence to presence of compound at anoxic IC50 preincubated for 1 hr followed by 15 Gy irradiation measured after 10 days by methylene blue staining-based cell counting method
Assay type: functional
measurement_type: Ratio
Lab note: write the figure by itself, no unit.

// solved cases for Ratio follow
Per the reported HCT-116 data, Cc1ncc([N+](=O)[O-])n1CCS(=O)(=O)NCCN(C)C has Ratio of 11

Per the reported HCT-116 data, COCCNS(=O)(=O)CCn1ccnc1[N+](=O)[O-] has Ratio of 6.4

Per the reported HCT-116 data, COCCNS(=O)(=O)CCn1cncc1[N+](=O)[O-] has Ratio of 122

Next item in the queue.
Per the reported HCT-116 data, O=[N+]([O-])c1nccn1CS(=O)(=O)NCCN1CCCC1 has Ratio of 1.7
